B1: TRAF3IP2 (parent)
chain: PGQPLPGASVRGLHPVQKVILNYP

Variants of: B1
assay.summary: protein stability index of a GFP-peptide fusion (GPS, HEK-293T) (PSI 1-6); higher = more stable;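 note: lentivirally expressed fusions sorted by FACS into six bins by GFP to DsRed ratio, PSI derived from sequencing read proportions per bin multiplied by bin number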
stated.conditions: c terminus: a fixed tail appended
Answer f if protein stability index is under 3, and t if it is 3 or more.

Input: Could you tell me if the measured protein stability index of PGQPLPGASVRGSHPVQKVILNYP [L13S] reaches 3 or more?
Output: t

Input: Is the recorded value of protein stability index equal to or greater than 3 for this variant? PKQPLPGASVRGLHPVQKVILNYP [G2K]
Output: f

Input: Reported protein stability index at or above 3? LGQPLPGASVRGLHPVQKVILNYP [P1L]
Output: f

Input: Say whether PGQPLPGASVRGLHLVQKVILNYP [P15L] shows protein stability index of 3 or more.
Output: f

Input: hey, is protein stability index for this one >= 3? PGQPLPGNSVRGLHPVQKVILNYP [A8N]
Output: t

Input: Does the reported protein stability index for PGQPLPGASVRGLHPTQKVILNYP [V16T] fall at or above the 3 mark?
Output: t

Input: Quick check, protein stability index >= 3? PGQPLPVASVRGLHPVQKVILNYP [G7V]
Output: t

Input: Is reported protein stability index greater than or equal to 3 here: HGQPLPGASVRGLHPVQKVILNYP [P1H]
Output: t

Input: Can TGQPLPGASVRGLHPVQKVILNYP [P1T] be said to have protein stability index at or above 3?
Output: f

Input: Would you say PGQPLPGASTRGLHPVQKVILNYP [V10T] shows protein stability index at minimum 3?
Output: f

Input: Threshold query (protein stability index >= 3) on PGQPLPGASVRQLHPVQKVILNYP [G12Q]
Output: t

Input: Hi team, for PGQPLPGANVRGLHPVQKVILNYP [S9N] , is the recorded protein stability index at or above 3?
Output: t

Input: Assess whether reported protein stability index for PGQPLPGASERGLHPVQKVILNYP [V10E] sits at 3 or higher.
Output: t

Input: Would you say PGQPLPGASVRGLYPVQKVILNYP [H14Y] shows protein stability index at minimum 3?
Output: f

Input: Answer whether protein stability index of PGQPLPGASVRGCHPVQKVILNYP [L13C] is greater than or equal to 3.
Output: f

Input: Given the entry NGQPLPGASVRGLHPVQKVILNYP [P1N] , answer whether its protein stability index meets or surpasses 3.
Output: t

Input: Tell me whether protein stability index is at least 3 here: PGQPLPRASVRGLHPVQKVILNYP [G7R]
Output: f

Input: Could you verify whether the entry PGQPLPGASVRGLHPVQKVIKNYP [L21K] shows protein stability index of no less than 3?
Output: t

Input: Decide: protein stability index of PGQPLPGASVRPLHPVQKVILNYP [G12P] >= 3?
Output: t

Input: Check the entry PGQPLPGASVRGLHPVQRVILNYP [K18R] : does protein stability index equal or exceed 3?
Output: f

Input: hey, is protein stability index for this one >= 3? PGQPLPGASVRWLHPVQKVILNYP [G12W]
Output: f

Input: # check: protein stability index of PGQPLPGASVRGLHPVQKVILNHP [Y23H] is greater than or equal to 3
Output: t

Input: Can PGQPLPGASVRGLHPVQKVRLNYP [I20R] be said to have protein stability index at or above 3?
Output: t

Input: API: above_or_equal(metric=protein stability index, cutoff=3) for item PGQPLPGASVRGLHPVQKVQLNYP [I20Q]
Output: t

Input: Entry PGQPLPGGSVRGLHPVQKVILNYP [A8G] : is its protein stability index no less than 3?
Output: t

Input: Can PGQPLPGASVRGLHPVQKVILGYP [N22G] be said to have protein stability index at or above 3?
Output: f

Input: Given the entry PRQPLPGASVRGLHPVQKVILNYP [G2R] , answer whether its protein stability index meets or surpasses 3.
Output: t

Input: Record PGIPLPGASVRGLHPVQKVILNYP [Q3I] ; criterion: protein stability index no lower than 3. Met?
Output: f

Input: Could you tell me if the measured protein stability index of PGQPLPGKSVRGLHPVQKVILNYP [A8K] reaches 3 or more?
Output: f

Input: Does the reported protein stability index for PGQPLPGASVRGLHPEQKVILNYP [V16E] fall at or above the 3 mark?
Output: t

Input: Has PGQPLPGASVRGLHPVQKVILAYP [N22A] a recorded protein stability index greater than or equal to 3?
Output: f

Input: Please check the record PGQPDPGASVRGLHPVQKVILNYP [L5D] and state if its protein stability index is at or above 3.
Output: t

Input: I'd appreciate it if you could say whether PGQPLPGASVRGLHGVQKVILNYP [P15G] has protein stability index at least equal to 3.
Output: f

Input: // inclusive: protein stability index at least 3? input: PGQPLPGASVRKLHPVQKVILNYP [G12K]
Output: t

Input: Determine whether this variant has protein stability index no lower than 3: PGQPLPGASVRGLHPVQKVILNYK [P24K]
Output: t

Input: Item PGQPLPGASVYGLHPVQKVILNYP [R11Y] with protein stability index of 3 or above?
Output: t

Input: Form field: protein stability index at least 3? Entry: PGQPLSGASVRGLHPVQKVILNYP [P6S]
Output: t

Input: Does the variant PGQPLPGASVRGLHPVQKVIHNYP [L21H] have recorded protein stability index that is 3 or more?
Output: t

Input: Form field: protein stability index at least 3? Entry: PGQPLPGASVRGLHPQQKVILNYP [V16Q]
Output: t

Input: Does protein stability index meet or surpass 3 for PGQPLPKASVRGLHPVQKVILNYP [G7K] ?
Output: f

Input: Given the entry PGQPLPGASVRGLHPDQKVILNYP [V16D] , answer whether its protein stability index meets or surpasses 3.
Output: t

Input: Determine whether measured protein stability index meets or exceeds 3 for PGQPLPGASVRGLHPVQFVILNYP [K18F]
Output: f

Input: Identify whether the reported protein stability index of the following variant is 3 or greater: PGQPLPGASVRGLHPVQKVILNTP [Y23T]
Output: t

Input: # check: protein stability index of PGQPLPGAYVRGLHPVQKVILNYP [S9Y] is greater than or equal to 3
Output: f

Input: # bool: protein stability index of PGQPLPGASVRGLEPVQKVILNYP [H14E] >= 3
Output: t

Input: Is protein stability index at least 3? Consider PGQPLPGASVRGLHPVQKVIDNYP [L21D]
Output: t

Input: Decide: is the reported value of protein stability index for PGQPLPGASVRGHHPVQKVILNYP [L13H] equal to or greater than 3?
Output: t

Input: // inclusive: protein stability index at least 3? input: PGQPLPGASVRGLHPVQKTILNYP [V19T]
Output: t

Input: Threshold query (protein stability index >= 3) on PGQPLPGAAVRGLHPVQKVILNYP [S9A]
Output: t

Input: Is protein stability index for PGQPLPGASVRGLHPVQKVLLNYP [I20L] at or above 3?
Output: t

Input: Decide: is the reported value of protein stability index for PGQPLPGASVRGLHPVQKVILNAP [Y23A] equal to or greater than 3?
Output: t

Input: Is protein stability index at least 3? Consider PGQRLPGASVRGLHPVQKVILNYP [P4R]
Output: t

Input: Evaluate PGQPLPGASVRGLHKVQKVILNYP [P15K] : protein stability index at minimum 3?
Output: f

Input: Does the reported protein stability index for PGSPLPGASVRGLHPVQKVILNYP [Q3S] fall at or above the 3 mark?
Output: t

Input: Would you say PGQPLPFASVRGLHPVQKVILNYP [G7F] shows protein stability index at minimum 3?
Output: t

Input: Check this variant for protein stability index at or above 3: PHQPLPGASVRGLHPVQKVILNYP [G2H]
Output: f

Input: Test whether the variant PGQPLPGASVRGLHPVQKVILSYP [N22S] records protein stability index of 3 or higher.
Output: t

Input: Given PGQLLPGASVRGLHPVQKVILNYP [P4L] , state whether its protein stability index is at least 3.
Output: f

Input: Can PGQPLPGASVRALHPVQKVILNYP [G12A] be said to have protein stability index at or above 3?
Output: t

Input: Given the entry PGTPLPGASVRGLHPVQKVILNYP [Q3T] , answer whether its protein stability index meets or surpasses 3.
Output: t

Input: Say whether PGQPLPGASVRDLHPVQKVILNYP [G12D] shows protein stability index of 3 or more.
Output: t

Input: State whether the measured protein stability index reaches 3, counting equality as reaching it, for PGQQLPGASVRGLHPVQKVILNYP [P4Q]
Output: t

Input: Say whether PGQPLPGASVWGLHPVQKVILNYP [R11W] shows protein stability index of 3 or more.
Output: f

Input: # bool: protein stability index of PGYPLPGASVRGLHPVQKVILNYP [Q3Y] >= 3
Output: f

Input: Evaluate PIQPLPGASVRGLHPVQKVILNYP [G2I] : protein stability index at minimum 3?
Output: f

Input: Reported protein stability index at or above 3? PGQPLPGASVRGLHPVQKVELNYP [I20E]
Output: t

Input: Form field: protein stability index at least 3? Entry: SGQPLPGASVRGLHPVQKVILNYP [P1S]
Output: f

Input: Answer whether protein stability index of PGQPLKGASVRGLHPVQKVILNYP [P6K] is greater than or equal to 3.
Output: f

Input: Record PGQPLPGASVRGYHPVQKVILNYP [L13Y] ; criterion: protein stability index no lower than 3. Met?
Output: f

Input: Could you verify whether the entry PGQPLPSASVRGLHPVQKVILNYP [G7S] shows protein stability index of no less than 3?
Output: f

Input: Confirm if protein stability index reported for the variant PGQPLPGRSVRGLHPVQKVILNYP [A8R] is 3 or above.
Output: f

Input: Does the reported protein stability index for PGQPLPGASVRGLHPVQQVILNYP [K18Q] fall at or above the 3 mark?
Output: t

Input: Does PGQPHPGASVRGLHPVQKVILNYP [L5H] have a reported protein stability index of at least 3?
Output: t

Input: Threshold query (protein stability index >= 3) on PGQPLPGASVRGLHPVQKVILNYT [P24T]
Output: f

Input: hey, is protein stability index for this one >= 3? PGQPLPYASVRGLHPVQKVILNYP [G7Y]
Output: f

Input: # bool: protein stability index of PGQPLPGASVRGLHRVQKVILNYP [P15R] >= 3
Output: t

Input: Decide: is the reported value of protein stability index for PGQPLPGASVRGLHYVQKVILNYP [P15Y] equal to or greater than 3?
Output: f

Input: Quick check, protein stability index >= 3? PGQPLPGASVRGQHPVQKVILNYP [L13Q]
Output: t

Input: Entry PGQPLPGASVPGLHPVQKVILNYP [R11P] : is its protein stability index no less than 3?
Output: t
